Molecular target: α4β1 integrin (Homo sapiens (Human), UniProt P05556+P13612)
Sequence (P13612 34-1032): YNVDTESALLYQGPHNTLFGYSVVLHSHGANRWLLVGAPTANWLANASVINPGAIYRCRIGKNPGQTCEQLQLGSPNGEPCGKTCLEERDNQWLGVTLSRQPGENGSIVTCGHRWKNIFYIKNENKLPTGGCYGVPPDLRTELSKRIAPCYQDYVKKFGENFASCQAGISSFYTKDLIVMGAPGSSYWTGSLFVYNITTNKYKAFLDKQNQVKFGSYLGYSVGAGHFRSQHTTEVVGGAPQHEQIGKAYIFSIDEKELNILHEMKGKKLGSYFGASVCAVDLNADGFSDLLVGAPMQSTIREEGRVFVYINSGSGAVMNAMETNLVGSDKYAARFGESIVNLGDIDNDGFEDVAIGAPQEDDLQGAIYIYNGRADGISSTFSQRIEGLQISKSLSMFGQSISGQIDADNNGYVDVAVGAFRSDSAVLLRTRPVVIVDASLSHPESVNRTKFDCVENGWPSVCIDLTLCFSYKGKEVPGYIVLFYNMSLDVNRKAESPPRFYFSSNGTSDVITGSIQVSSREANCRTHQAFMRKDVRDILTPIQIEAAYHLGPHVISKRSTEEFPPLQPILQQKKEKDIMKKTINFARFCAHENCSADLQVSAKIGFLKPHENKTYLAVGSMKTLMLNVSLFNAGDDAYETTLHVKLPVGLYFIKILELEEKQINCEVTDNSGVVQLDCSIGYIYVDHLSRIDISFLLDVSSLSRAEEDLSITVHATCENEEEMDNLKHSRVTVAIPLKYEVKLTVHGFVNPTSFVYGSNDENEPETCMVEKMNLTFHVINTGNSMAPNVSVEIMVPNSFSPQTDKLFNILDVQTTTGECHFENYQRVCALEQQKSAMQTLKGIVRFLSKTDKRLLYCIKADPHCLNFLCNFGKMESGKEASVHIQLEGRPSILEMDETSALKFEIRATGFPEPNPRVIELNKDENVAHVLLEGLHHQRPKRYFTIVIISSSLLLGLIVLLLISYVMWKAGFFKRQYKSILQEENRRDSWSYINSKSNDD
Sequence (P05556 21-798): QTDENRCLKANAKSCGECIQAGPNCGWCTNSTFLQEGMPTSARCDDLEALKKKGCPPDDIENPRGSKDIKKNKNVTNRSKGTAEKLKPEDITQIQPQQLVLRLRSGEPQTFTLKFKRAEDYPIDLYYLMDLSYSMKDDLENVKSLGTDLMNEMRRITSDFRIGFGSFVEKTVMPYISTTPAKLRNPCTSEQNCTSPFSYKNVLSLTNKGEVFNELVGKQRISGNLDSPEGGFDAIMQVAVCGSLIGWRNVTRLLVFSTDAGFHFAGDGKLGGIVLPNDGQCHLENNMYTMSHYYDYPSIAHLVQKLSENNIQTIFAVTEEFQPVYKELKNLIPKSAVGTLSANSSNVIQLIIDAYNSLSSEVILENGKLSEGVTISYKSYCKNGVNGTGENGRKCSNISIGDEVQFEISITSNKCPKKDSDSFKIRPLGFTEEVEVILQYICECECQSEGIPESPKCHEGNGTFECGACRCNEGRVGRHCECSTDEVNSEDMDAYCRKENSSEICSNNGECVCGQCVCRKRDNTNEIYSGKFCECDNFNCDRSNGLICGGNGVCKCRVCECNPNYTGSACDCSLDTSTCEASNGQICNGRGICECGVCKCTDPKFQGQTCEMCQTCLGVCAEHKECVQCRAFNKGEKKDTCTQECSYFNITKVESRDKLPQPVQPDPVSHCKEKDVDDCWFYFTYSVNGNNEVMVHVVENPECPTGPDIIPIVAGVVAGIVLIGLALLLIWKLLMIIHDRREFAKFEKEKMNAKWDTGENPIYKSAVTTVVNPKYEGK
Test: Integrin Adhesion Assay: Protocol 2 (VCAM-coated plate, Jurkat cells, CellTiter GLO readout)
Type: cell-based
Conditions: determined by at least one of the assays described (protocol not specified)
pIC50: −log10 of the molar value.
Here the recorded pIC50 is given for each entry.

Recorded results for 2 compounds are shown here.
CN1CCN(c2cc(F)c(C(=O)N[C@@H](Cc3cccc4c(-n5c(=O)ccn(C)c5=O)cccc34)C(=O)O)c(F)c2)[C@@H](C(F)(F)F)C1 [Compound 21] : < 6.00
Cc1cc(N2CCOC[C@@H]2C(F)(F)F)cc(F)c1C(=O)N[C@@H](Cc1cccc2c(-c3c(C(F)(F)F)ccn(C)c3=O)nccc12)C(=O)O [Compound 215] : < 6.00

Could you now consider this next compound?
Cn1ccc(=O)n(-c2cccc3c(C[C@H](NC(=O)c4c(F)ccc(OC(F)F)c4F)C(=O)O)cccc23)c1=O [Compound 31] has a reported pIC50 of 6.00 to 7.00

Source listed as patent US20250313535A1.
